biological target: recombinant human glycogen synthase kinase 3 beta (Homo sapiens); test: GSK-3 beta inhibition assay; type: biochemical; conditions: 0.5 h; 25 μM compound; percentage of enzyme activity remaining
Sequence (P49841 whole entry): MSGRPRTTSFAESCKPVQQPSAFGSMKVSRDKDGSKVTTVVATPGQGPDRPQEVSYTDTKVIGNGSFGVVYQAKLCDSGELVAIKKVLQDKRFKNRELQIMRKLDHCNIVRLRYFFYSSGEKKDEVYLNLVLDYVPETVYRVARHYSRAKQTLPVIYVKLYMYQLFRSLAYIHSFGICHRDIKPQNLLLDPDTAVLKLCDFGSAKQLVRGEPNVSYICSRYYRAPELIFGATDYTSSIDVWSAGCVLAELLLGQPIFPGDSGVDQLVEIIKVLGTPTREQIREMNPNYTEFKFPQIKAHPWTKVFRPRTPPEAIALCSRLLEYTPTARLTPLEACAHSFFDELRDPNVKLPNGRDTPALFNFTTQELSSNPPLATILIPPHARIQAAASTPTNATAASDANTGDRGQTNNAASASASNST
Reported endpoint: remaining activity at 25 µM (%)

Solved cases (3 shown):
1. CC(C)=CCC/C(C)=C/COc1cccc(C(=O)O)c1 70.3
2. COC(=O)c1ccc(OC)c(OC/C=C(\C)CCC=C(C)C)c1 88.1
3. COc1ccc(C(=O)NC/C=C(\C)CCC=C(C)C)cc1OC/C=C(\C)CCC=C(C)C 47.5

[1] COC(=O)c1ccc(NC(C)=O)c(OC/C=C(\C)CC/C=C(\C)CCC=C(C)C)c1
[2] CCOC(=O)c1ccc(O)c(OC/C=C(\C)CCC=C(C)C)c1
[3] CC(C)=CCC/C(C)=C/CC/C(C)=C/COc1ccc(C(=O)O)cc1OC/C=C(\C)CC/C=C(\C)CCC=C(C)C
Challenge: Put the entries in order of remaining activity at 25 µM, starting with the largest number. Write the labels in rank order as requested.
Response given: 1, 2, 3
(1: 74.4%, 2: 48.3%, 3: 12.4%)

[1] CC(=O)Nc1ccc(C(=O)O)cc1OC/C=C(\C)CC/C=C(\C)CCC=C(C)C
[2] COC(=O)c1ccc(OC)c(OC/C=C(\C)CCC=C(C)C)c1C/C=C(\C)CCC=C(C)C
Challenge: Field: lower remaining activity at 25 µM | Options: 1 / 2 API: response body contains the label of the selected item.
Response given: 2
(2: 56%, 1: 90%)

[1] COC(=O)c1cccc(OC/C=C(\C)CCC=C(C)C)c1
[2] COCOC(=O)c1ccc(OC)c(OC/C=C(\C)CCC=C(C)C)c1
Challenge: Field: lower remaining activity at 25 µM | Options: 1 / 2 API: response body contains the label of the selected item.
Response given: 2
